Molecular target: SARS-CoV-2 wild-type RBD (SARS-CoV-2 wild type)
Assay: BLI
Details: both partners purified
Recorded Endpoint: koff
Give the value; after it, write the unit.

Need koff, item C978 (antibody, V domains shown, human IgG1) VH: QVQLVQSGAEVKKPGSSVKVSCKASGATFSNYIISWVRQAPGQGLEWMGRTIPLLDIANYAQKFQGRVTITADKSTRIVYMHLGSLTSEDTAVYYCATGKGYSSSSAAYYFDHWGQGTLVTVSS VL: QSVLTQPPSVSGAPGQRVTISCTGTNSNIGAGYDIHWYQQLPGTAPKLLIYGSNNRPSGVPDRFSGSKSGTSASLAITGLQAEDEADYYCQSYDSSLSGSEVFGGGTKLTVL 0.000524 s⁻¹

Data provenance: paper PMC9519457
